- Test system: Human Umbilical Vein Endothelial Cells (HUVECs)
- assay-text: Inhibition against invasive tube formation by vascular endothelial cells in response to stimulation by angiogenic factor mixture
- Type: cell-based
- Parameters: key: the number of tubes formed in the absence of the test substance was designated as +++; scored on the 5-level scale of +++, ++, +, +/−, −; scored on the 5-level scale of +++, ++, +, +/−, −; scored on the 5-level scale of +++, ++, +, +/−, −; − was assigned if absolutely no tubes formed
- test-conditions: test substance 0.01 μM; HUVEC on fibrin gel, EGF/FGF2/VEGF/HGF/TNF-α mixture, 6th day, MTT staining
- Protocol: Inhibition Against Invasive Tube Formation by Vascular Endothelial Cells in Response to Stimulation by Angiogenic Factor Mixture Human Umbilical Vein Endothelial Cells (HUVECs) were isolated according to a reported method (Shinseikagaku Jikken Koza [New Biochemistry Experiment Lectures], “Saibo Baiyo Gijutsu” [Cell Culturing Techniques], p.197–202), and were cultured in a 5% CO2 incubator (37° C.) using EGM-2 medium (purchased from Clonetics Corp.) until the cells reached confluency. […]
result-type: number of tubes formed in the fibrin gel (score) at 0.01 μM

> print(dat)
                   compound.structure.string  measurement
 1  N#Cc1cc2c(Oc3ccc(NC(=O)Nc4ccc(F)cc4F)c(F)c3)ccnc2cc1OCc1ccccc1           ++
 2  CCN1CCN(CCCOc2cc3nccc(Oc4ccc(NC(=O)Nc5ccc(OC)cc5)cc4)c3cc2C#N)CC1          +++
 3  CS(=O)(=O)c1cccc(NC(=O)Nc2ccc(Oc3ccnc4cc(OCCCN5CCOCC5)c(C#N)cc34)cc2)c1           ++
 4  CN1CCC(COc2cc3nccc(Oc4ccc(NC(=O)NC5CC5)c(Cl)c4)c3cc2C#N)CC1            +
 5  COc1cc2nccc(Oc3ccc(NC(=O)NC4CC4)c(Cl)c3)c2cc1C(=O)NCCF          +/−
 6  O=C(Nc1ccc(Oc2ncnc3[nH]c(-c4ccccc4)cc23)cc1)Nc1cccc(F)c1            +
 7  NC(=O)c1cc2c(Oc3ccc(NC(=O)NC4CC4)c(F)c3)ccnc2cc1OCCCN1CCOCC1          +/−
 8  O=C(Nc1cc(Oc2ccc3c(ccn3C(=O)NC3CC3)c2)ccn1)C1CC1          +/−
 9  COCCOc1cc2nccc(Oc3ccc(NC(=O)Nc4ccc(F)cc4)c(F)c3)c2cc1C#N           ++
10  CCNC(=O)n1ccc2cc(Oc3ccnc4cc(OC)c(C(N)=O)cc34)ccc21          +/−
11  COCCOc1cc2nccc(Oc3ccc(NC(=O)Nc4nccs4)c(F)c3)c2cc1C#N           ++
12  COc1cc2nccc(Oc3ccc(NC(=O)NC4CC4)c(Cl)c3)c2cc1C(N)=O            −
13  CCN(CC)CCCOc1cc2nccc(Oc3ccc4c(ccn4C(=O)NC4CC4)c3)c2cc1C#N          +/−
14  COc1ccc(NC(=O)Nc2ccc(Oc3ccnc4cc(OCCOCCO)c(C#N)cc34)cc2)cc1          +++
15  COc1cc2nccc(Sc3ccc(NC(=O)Nc4ccc(F)cc4)s3)c2cc1C(N)=O          +/−
16  COc1cc2nccc(Oc3ccc(NC(=O)NC4CC4)c(Cl)c3)c2cc1C(=O)NCCS(C)(=O)=O            −
17  CCN(CC)CCOc1ccc(-c2cc3c(Oc4ccc(NC(=O)NC5CC5)c(Cl)c4)ncnc3[nH]2)cc1          +/−
18  N#CCCCOc1cc2nccc(Oc3ccc(NC(=O)Nc4ccc(F)cc4F)c(F)c3)c2cc1C#N          +++
19  CCN(CC)CCCOc1cc2nccc(Oc3ccc(NC(=O)Nc4ccccc4)cc3)c2cc1C#N          +++
20  COc1cc2nccc(Oc3ccc(N(C)C(=O)Nc4ccc(F)cc4)cc3)c2cc1C(N)=O          +/−
21  O=C(CCCN1CCC(O)CC1)Nc1cc(Oc2ccc3c(ccn3C(=O)Nc3ccccc3)c2)ccn1          +/−
